Origin of measurements: ChEMBL document CHEMBL1201862

- Test system: HOP-92
- test-name: NCI tumour cell line growth inhibition, 48 h
The source made the active and inactive calls. Cut-off read from the data, not from the text of the source: active = GI50 up to about 1.1 µM and inactive = higher.
Consider the following compounds; for each one, report its GI50.

Query block: Value lookup for GI50; key = Cc1nc(=O)n2c(c1C(=O)Nc1ccc(Cl)cc1)NCC2
Result block: 47.8 µM (inactive)

Query block: Value lookup for GI50; key = O=C(CCCN1CCC2(CC1)OC(=O)N(c1ccccc1)C2=O)c1ccccc1
Result block: > 100 µM (inactive)

Query block: Value lookup for GI50; key = COc1c2occc2c(N)c2ccc(=O)oc12
Result block: > 100 µM (inactive)

Query block: Value lookup for GI50; key = COc1ccc2c(c1)c1c(n2CCN2CCOCC2)-c2ccccc2CC1
Result block: 46.8 µM (inactive)

Query block: Value lookup for GI50; key = Nc1nc(N)c2ncn(Cc3ccccc3CO)c2n1
Result block: > 100 µM (inactive)

Query block: Value lookup for GI50; key = CC(=O)N1C(CCc2ccccc2)CC(C)(C=O)C1Cc1ccc(O[Si](C(C)C)(C(C)C)C(C)C)cc1 (stereo unspecified)
Result block: 9.71 µM (inactive)

Query block: Value lookup for GI50; key = NC(=S)Nc1nc(=S)[nH]c2c1SC1=N/C(=C\c3ccco3)C(=O)N12
Result block: > 100 µM (inactive)

Query block: Value lookup for GI50; key = O=C(N/N=C\c1ccc([N+](=O)[O-])s1)c1ccncc1
Result block: 15.6 µM (inactive)

Query block: Value lookup for GI50; key = OC(c1cc(C(O)(C(F)(F)F)C(F)(F)F)ncn1)(C(F)(F)F)C(F)(F)F
Result block: > 10 µM (inactive)

Query block: Value lookup for GI50; key = Cc1ccc(SCN2CCCCC2)cc1.O=C(Cl)c1ccc([N+](=O)[O-])cc1
Result block: 9.18 µM (inactive)

Query block: Value lookup for GI50; key = Cc1ccc(Nc2nc(NNC(=O)Cc3ccccc3)nc(NNC(=O)c3ccncc3)n2)cc1
Result block: > 10 µM (inactive)

Query block: Value lookup for GI50; key = C=CCOC(=O)C1=C(CCC[C@@H](C)O[Si](C)(C)C(C)(C)C)N=C(N)N2[C@H](CCO)CC[C@@H]12
Result block: 13.6 µM (inactive)

Query block: Value lookup for GI50; key = Cc1ccc(/N=N/c2ccc(O)c(CN(C)C)c2)cc1C
Result block: 26.8 µM (inactive)

Query block: Value lookup for GI50; key = CCN(CC)CCC(=O)NC1c2ccc(Cl)cc2Oc2c(C)cccc21 (stereo unspecified)
Result block: 25.8 µM (inactive)

Query block: Value lookup for GI50; key = COc1ccc2nc3cccc([N+](=O)[O-])c3c(NCCO)c2c1
Result block: 0.0195 µM (active)

Query block: Value lookup for GI50; key = CN(C)c1nc(N(C)c2ccccc2)[s+]s1
Result block: > 100 µM (inactive)

Query block: Value lookup for GI50; key = Cc1c(-c2ccc(-c3ccccc3F)cc2)nc2ccc(F)cc2c1C(=O)O [BREQUINAR SODIUM]
Result block: 35.2 µM (inactive)

Query block: Value lookup for GI50; key = CCOP(=O)(OCC)/C(C#N)=C/c1cccn1C
Result block: > 100 µM (inactive)

Query block: Value lookup for GI50; key = O=c1n(CCCN2CCN(c3cccc(Cl)c3)CC2)nc2n1-c1ccc3ccccc3c1SC2
Result block: > 100 µM (inactive)

Query block: Value lookup for GI50; key = COC(=O)[C@]1(c2cc3ccccc3[nH]2)CC2CN(CC(=O)N(C)OC)C1C1OC(C)(C)OC21 (stereo partly specified)
Result block: 47.8 µM (inactive)

Query block: Value lookup for GI50; key = CCCCCCCC(=O)OC[n+]1cccc(-c2c(COC(=O)NC(C)C)c(COC(=O)NC(C)C)c3n2CCC3)c1
Result block: 44.8 µM (inactive)

Query block: Value lookup for GI50; key = CCCCCCCN(CCCCCCC)CC(O)c1cc2ccccc2c2cc(Br)ccc12 (stereo unspecified)
Result block: 19.2 µM (inactive)

Query block: Value lookup for GI50; key = O[C@]12C=C(c3nccc4c3[nH]c3ccccc34)[C@@H]3CCN(CCCC/C=C\CC1)C[C@@]31CC3/C=C\CCCCN3[C@H]12 (stereo partly specified)
Result block: 0.252 µM (active)

Query block: Value lookup for GI50; key = N#CCCSC1SC(=C2SC3=C(SCCS3)S2)SC1SCCC#N (stereo unspecified)
Result block: > 100 µM (inactive)

Query block: Value lookup for GI50; key = COc1cc(OC)cc(-c2cc(=O)c3c(OC)c(OC)c(OC)c(OC)c3o2)c1
Result block: 16.7 µM (inactive)

Query block: Value lookup for GI50; key = N#C/C(=C\c1ccccc1)C(=O)Nc1nnc(-c2ccccc2)o1
Result block: 47.9 µM (inactive)

Query block: Value lookup for GI50; key = C(=N\OCc1ccccc1)/c1ncccc1C1OCCO1
Result block: > 100 µM (inactive)

Query block: Value lookup for GI50; key = CCCCCCCC/C=C1\CCC(CN2CCOCC2)C1=O (stereo unspecified)
Result block: 16.6 µM (inactive)

Query block: Value lookup for GI50; key = O=C(CN1c2ccccc2Sc2ccccc21)n1cnc2ccccc21
Result block: 30.6 µM (inactive)

Query block: Value lookup for GI50; key = c1ccc2c(c1)-c1ccccc1C2N1CC2CCC(CC2)C1
Result block: 17.5 µM (inactive)

Query block: Value lookup for GI50; key = CCCCCCCCCCOC1C(C(C)OCCCN(C)C)OC2OC3(CCCCC3)OC21 (stereo unspecified)
Result block: 3.4 µM (inactive)

Query block: Value lookup for GI50; key = C[N+]1(C)C2Cc3ccccc3C1Cc1ccccc12
Result block: 61.1 µM (inactive)

Query block: Value lookup for GI50; key = COc1ccc(C(SCCO)(c2ccc(OC)cc2)c2ccc(OC)cc2)cc1
Result block: 10.1 µM (inactive)

Query block: Value lookup for GI50; key = Cc1ccc(Cc2n[nH]c(=O)[nH]2)cc1
Result block: > 100 µM (inactive)

Query block: Value lookup for GI50; key = Cc1cc(Cl)ccc1NC(=O)/C(CC(=O)CC(c1ccccc1)c1c(O)c2ccccc2oc1=O)=N\O (stereo unspecified)
Result block: 39.2 µM (inactive)

Query block: Value lookup for GI50; key = COc1ccc(-c2nc(O)c3ccccc3n2)cc1
Result block: > 100 µM (inactive)

Query block: Value lookup for GI50; key = CC(C)=CC[S+]([O-])c1ccccc1NC1=CC(=O)CC(C)(C)C1 (stereo unspecified)
Result block: > 100 µM (inactive)

Query block: Value lookup for GI50; key = CSCC[C@@H](NC(=O)[C@H](CC(C)C)NC(=O)C(Cc1cnc[nH]1)NC(=O)CNC(=O)[C@@H](NC(=O)[C@H](C)NC(=O)[C@H](Cc1c[nH]c2ccccc12)NC(=O)[C@H](CCC(N)=O)NC(=O)[C@@H](N)CC(N)=O)C(C)C)C(N)=O (stereo partly specified)
Result block: > 100 µM (inactive)

Query block: Value lookup for GI50; key = CCOC(=O)c1c(N2CCCC2)ncn(-c2ccccc2)c1=S
Result block: > 100 µM (inactive)

Query block: Value lookup for GI50; key = CO/C(=N\N=C\c1cccc(Cl)c1)c1ccncc1
Result block: > 10 µM (inactive)

Query block: Value lookup for GI50; key = O=C(O)CO[C@@]12C#C/C=C\C#C[C@@H]3N(C(=O)Oc4ccccc4)c4ccccc4[C@]14O[C@@]34CCC2
Result block: 57.4 µM (inactive)

---

- Test system: SW-620
- test-name: NCI tumour cell line growth inhibition, 48 h
Active and inactive are the calls of the source. Rule as the data show it: active = GI50 up to about 1.1 µM and inactive = higher.
A correct response names exactly one class from T = active, F = inactive

Query block: What is the recorded call for this compound in the test? CC1=C(CCC(C)CO)O[C@H]2C[C@H]3[C@@H]4CC[C@H]5C[C@@H](O)CC[C@]5(C)[C@H]4CC(=O)[C@]3(C)[C@@H]12 (stereo partly specified)
Result block: F

Query block: What is the recorded call for this compound in the test? NC(Cc1ccc(CP(=O)(O)O)cc1)C(=O)O (stereo unspecified)
Result block: F

Query block: What is the recorded call for this compound in the test? O=C1C(Cl)N(c2cccc([N+](=O)[O-])c2)C1c1c[nH]c2ccccc12 (stereo unspecified)
Result block: F

Query block: What is the recorded call for this compound in the test? CCCC(C)c1c(Cl)nc(Cl)nc1Cl (stereo unspecified)
Result block: F

Query block: What is the recorded call for this compound in the test? Cc1cc(Cl)ccc1NC(=O)/C(CC(=O)CC(c1ccccc1)c1c(O)c2ccccc2oc1=O)=N\O (stereo unspecified)
Result block: F

Query block: What is the recorded call for this compound in the test? C=CCCC12CCCC(=O)C1Sc1ccc3ccccc3c12 (stereo unspecified)
Result block: F

Query block: What is the recorded call for this compound in the test? CC1CC2=C(C1)C(C1(C)C(=O)CC3C(C1=O)C3(C)C)C(C)C2=O (stereo unspecified)
Result block: F

Query block: What is the recorded call for this compound in the test? COC(=O)/C([Se]c1c(C)cc(C)cc1C)=C(/[Se]c1c(C)cc(C)cc1C)C(=O)OC
Result block: F

Query block: What is the recorded call for this compound in the test? COc1ccc2c(c1)c1c(n2CCN2CCOCC2)-c2ccccc2CC1
Result block: F

Query block: What is the recorded call for this compound in the test? O=C(CNc1cccc(Cl)c1)Nn1c(-c2ccccc2)nc2ccccc2c1=O
Result block: F

Query block: What is the recorded call for this compound in the test? CCOC(=O)c1c(N2CCCC2)ncn(-c2ccccc2)c1=S
Result block: F

Query block: What is the recorded call for this compound in the test? CC[C@H](CO)Nc1nc(NCc2ccccc2)c2ncn(C(C)C)c2n1
Result block: F

Query block: What is the recorded call for this compound in the test? CCOC(=O)c1ccc(/N=C2\SC(=S)N(c3ccc(F)cc3)\C2=N/c2ccc(C(=O)OCC)cc2)cc1
Result block: F

Query block: What is the recorded call for this compound in the test? CC(C)c1cccc(C(C)C)c1NC(=O)C(=O)C1SC(=S)NC1=O (stereo unspecified)
Result block: F

Query block: What is the recorded call for this compound in the test? CC(=O)OCC1=C(CCC#N)N2C(=O)C(NC(=O)Cc3cccs3)C2[S+]([O-])C1 (stereo unspecified)
Result block: F

Query block: What is the recorded call for this compound in the test? CC(=O)NC1=CC(=O)C=C(Cl)C1=O
Result block: F

Query block: What is the recorded call for this compound in the test? COc1cc(C2C3=C(COC3=O)Oc3cc4c(cc32)OCO4)ccc1O (stereo unspecified)
Result block: T

Query block: What is the recorded call for this compound in the test? COC(c1cccc(C(O)(C(F)(F)F)C(F)(F)F)c1)(C(F)(F)F)C(F)(F)F
Result block: F

Query block: What is the recorded call for this compound in the test? O=C1CSC(Cc2nc3ccccc3[nH]2)=N1
Result block: F

Query block: What is the recorded call for this compound in the test? COc1ccc(NC(=O)C2C(=O)N(c3ccc(OC)cc3)C(=O)/C2=N\N)cc1 (stereo unspecified)
Result block: F

Query block: What is the recorded call for this compound in the test? O=C(N/N=C\c1ccc([N+](=O)[O-])s1)c1ccncc1
Result block: F
